# studySystem: UniProt Q96RI1
# Sequence (Q96RI1 1-476 isoform Q96RI1-1): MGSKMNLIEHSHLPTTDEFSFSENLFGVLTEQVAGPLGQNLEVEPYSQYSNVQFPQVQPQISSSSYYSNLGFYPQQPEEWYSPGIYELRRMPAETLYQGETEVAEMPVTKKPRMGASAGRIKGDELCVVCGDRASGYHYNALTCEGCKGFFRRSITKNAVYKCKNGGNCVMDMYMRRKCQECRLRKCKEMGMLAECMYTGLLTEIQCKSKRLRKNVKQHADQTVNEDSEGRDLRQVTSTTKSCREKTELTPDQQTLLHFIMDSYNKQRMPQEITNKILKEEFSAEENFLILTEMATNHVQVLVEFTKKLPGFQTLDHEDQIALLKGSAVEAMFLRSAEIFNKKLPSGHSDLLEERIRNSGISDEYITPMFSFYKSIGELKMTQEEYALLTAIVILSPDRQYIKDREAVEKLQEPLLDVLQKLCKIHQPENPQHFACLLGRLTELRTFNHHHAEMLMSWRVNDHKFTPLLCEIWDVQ
# assaySummary: Human FXR (NR1H4) agonist assessment, FXRE-NanoLuc reporter in HEK293T cells
# Assay type: cell-based
# measurementContext: FXR activation, HEK293T FXRE-NanoLuc reporter, 24 hr; read-out: EC50
pEC50: −log10 of the molar value.
recordedEndpoint: pEC50

// query pEC50 value for entry `CC[C@H]1[C@@H](O)[C@@H]2[C@H](CC[C@]3(C)[C@@H]([C@H](C)CCNS(=O)(=O)CC(C)C)CC[C@@H]23)[C@@]2(C)CCCC[C@@H]12` < 5.00

Please look up its pEC50: `CC[C@H]1[C@@H](O)[C@@H]2[C@H](CC[C@]3(C)[C@@H]([C@H](C)CC(=O)O)CC[C@@H]23)[C@@]2(C)CCCC[C@@H]12` < 5.00

Look up pEC50 for this molecule: `CC[C@H]1[C@@H](O)[C@@H]2[C@H](CC[C@]3(C)[C@@H]([C@H](C)CCNC(=S)NS(=O)(=O)c4cccs4)CC[C@@H]23)[C@@]2(C)CCCC[C@@H]12` > 6.00

Reported pEC50 for `CC[C@H]1[C@@H](O)[C@@H]2[C@H](CC[C@]3(C)[C@@H]([C@H](C)CCNC(=O)NS(=O)(=O)c4cc(F)cc(F)c4)CC[C@@H]23)[C@@]2(C)CCCC[C@@H]12` : what is it? > 6.00

Looking for the measured pEC50 of `CC[C@H]1[C@@H](O)[C@@H]2[C@H](CC[C@]3(C)[C@@H]([C@H](C)CCNC(=O)NS(=O)(=O)c4ccc(C5(CO)CCCC5)cc4)CC[C@@H]23)[C@@]2(C)CCCC[C@@H]12` , can you help? > 6.00

Source listed as patent US20260116910A1.
